Would you mind telling me the reported inhibition at 200 ppm of each entry?
tested on: Frankliniella occidentalis (Western Flower Thrips); assay: Frankliniella occidentalis (Western Flower Thrips) Feeding/Contact Activity, bean leaf discs; format: in vivo; details: foliar, 96 h, application rate of 200 ppm, bean leaf discs sprayed, population of mixed ages, 4 days after infestation, read-out: growth inhibition

{"columns": ["compound", "inhibition at 200 ppm"],
 "data": [
  ["C[C@@H](COc1cnc(Cl)c(CNC(=O)C23CC(C(F)(F)F)(C2)C3)c1)NS(=O)(=O)C(F)(F)F [P-25]", "≥ 80%"],
  ["C[C@@H](COc1cnc(Cl)c(CNC(=O)C2CCC2)c1)NS(=O)(=O)C(F)(F)F [P-24]", "≥ 80%"],
  ["C[C@@H](COc1cnc(Cl)c(CNC(=O)C2CC(F)(F)C2)c1)NS(=O)(=O)C(F)(F)F [P-35]", "≥ 80%"],
  ["CCC(=O)NCc1cc(OC[C@H](C)N(C(=O)CC)S(=O)(=O)C(F)(F)F)ccc1Cl [P-18]", "≥ 80%"]
]}

Let's switch to this compound now.
Requested field: inhibition at 200 ppm. Item: C[C@@H](COc1cnc(Cl)c(CNC(=O)C2CCC2(F)F)c1)NS(=O)(=O)C(F)(F)F (some centres unmarked) [P-22]
≥ 80%
